// provenance: PubChem BioAssay (NCATS)

- assay-protocol: qHTS of pediatric cancer cell lines to identify multiple opportunities for drug repurposing: Primary screen for LAN-5 cells (AID 1347100)
- assay-conditions: LAN-5 neuroblastoma viability, CellTiter-Glo luminescence, 48 h; series mostly up to 46 µM
Results filed as inconclusive are left out. Activity calls are given as the source filed them. Calls follow the shape of the dose curve; as a rule, active = well fitted cell-killing curve with a large enough effect; inconclusive = small, poorly fitted or top-dose-only effect; inactive = no such curve, though single readings can be large or run the other way.
Just give me one of these, please: T for active, F for inactive

Example results:
{"compound": "CC[C@H](C=C[C@@H](C)[C@H]1CC[C@H]2[C@@H]3CC=C4C[C@@H](O)CC[C@]4(C)[C@@H]3CC[C@]12C)C(C)C", "class-label": "F"}
{"compound": "COc1ccc(-c2cc3nccn3c(Nc3ncccc3C(N)=O)n2)cc1OC", "class-label": "T"}
{"compound": "CCc1cc(-c2n[nH]c(C)c2-c2ccc3c(c2)OCCO3)c(O)cc1O", "class-label": "T"}
{"compound": "Cc1ccccc1C(C(=O)NC1CCCCC1)N(C(=O)CNc1ccc(C#N)cc1)c1cccc(F)c1 (centres undefined)", "class-label": "F"}
{"compound": "c1cc(OCCN2CCCCC2)cc(-c2n[nH]c3ccc(-c4ncn[nH]4)cc23)c1", "class-label": "T"}

// outcome(item) with item = COc1cc(Cl)cn2c(-c3cccc(NC4CNC4)n3)cnc12
T

Would you mind telling me which call this test gave O=C(Nc1ccccc1)Nc1ccc(-c2ccc(C(=O)[C@H]3CCC[C@H]3C(=O)O)cc2)cc1 ?
F

Called result for Fc1ccc(CNc2ncnc3ccc(F)cc23)cc1
F

Called result for N#CC(=C1Nc2ccccc2S1)c1ccnc(OCc2ccc(CN3CCOCC3)cc2)n1
T
